System: Trichophyton mentagrophytes
ASSAY TEXT: Antifungal activity against Trichophyton mentagrophytes 445 after 72 hrs by microdilution method
Type: functional
MEASUREMENT CONDITIONS: Trichophyton mentagrophytes, 445, 72 h
ASSAY METRIC: MIC80 (µM)
Output spec: scalar in µM, unitless text.

[
  {
    "MOLECULE": "CC(=O)OCC1C=C(c2ccc(Br)cc2)C(=O)O1 (stereo not drawn)",
    "OUTPUT UNIT": "µM",
    "MIC80": 1.95
  }
]

Field: next molecule
Look up MIC80: `O=C1O/C(=C\CO)C=C1c1ccc(Br)cc1`
7.81

====

Tested on: Nakaseomyces glabratus
ASSAY TEXT: Antifungal activity against Candida glabrata 20/I after 48 hrs by microdilution method
Assay type: functional
Please note: MIC80 exactly at 4 µM is Not fulfilled. Only values below 4 µM get Fulfilled.

Problem: For the compound `O=C1O/C(=C\COC(=O)c2ccccc2)C=C1c1ccc(Br)cc1` , is MIC80 under 4 µM?
Not fulfilled

Problem: For the compound CC(=O)OCC1C=C(c2ccc(Br)cc2)C(=O)O1 (stereo not drawn) , is MIC80 under 4 µM?
Fulfilled

Problem: For the compound `O=C1O/C(=C\c2ccccc2)C=C1c1ccc(Br)cc1` , is MIC80 under 4 µM?
Not fulfilled

Problem: For the compound COc1ccc(OCC2C=C(c3ccc(Br)cc3)C(=O)O2)cc1 (stereo not drawn) , is MIC80 under 4 µM?
Fulfilled

Problem: For the compound `CC(=O)OC/C=C1/C=C(c2ccc(Br)cc2)C(=O)O1` , is MIC80 under 4 µM?
Not fulfilled

Problem: For the compound `C=C1C=C(c2ccc(Br)cc2)C(=O)O1` , is MIC80 under 4 µM?
Fulfilled

Problem: For the compound `O=C1OCC=C1c1ccc(Br)cc1` , is MIC80 under 4 µM?
Not fulfilled

Problem: For the compound `C/C=C1/C=C(c2ccc(Br)cc2)C(=O)O1` , is MIC80 under 4 µM?
Not fulfilled

Problem: For the compound O=C1OC(COc2cccc(C(=O)O)c2)C=C1c1ccc(Br)cc1 (stereo not drawn) , is MIC80 under 4 µM?
Fulfilled

Problem: For the compound O=C1OC(COc2cccc(Br)c2)C=C1c1ccc(Br)cc1 (stereo not drawn) , is MIC80 under 4 µM?
Fulfilled

Problem: For the compound COCC1C=C(c2ccc(Br)cc2)C(=O)O1 (stereo not drawn) , is MIC80 under 4 µM?
Not fulfilled

Problem: For the compound `OC(Cn1cncn1)(Cn1cncn1)c1ccc(F)cc1F` , is MIC80 under 4 µM?
Not fulfilled

Problem: For the compound O=C1OC(COc2ccccc2)C=C1c1ccc(Br)cc1 (stereo not drawn) , is MIC80 under 4 µM?
Fulfilled

====

System: Candida tropicalis
ASSAY TEXT: Antifungal activity against Candida tropicalis 156 after 24 hrs by microdilution method
Type: functional
MEASUREMENT CONDITIONS: Candida tropicalis, 156, 24 h
ASSAY METRIC: MIC80 (µM)
Output spec: scalar in µM, unitless text.

Solved cases below.
[
  {
    "MOLECULE": "COC(=O)c1ccc(OCC2C=C(c3ccc(Br)cc3)C(=O)O2)cc1 (stereo not drawn)",
    "SUBJECT OF TEST": "Candida tropicalis",
    "OUTPUT UNIT": "µM",
    "MIC80": 15.6
  },
  {
    "MOLECULE": "COc1ccc(OCC2C=C(c3ccc(Br)cc3)C(=O)O2)cc1 (stereo not drawn)",
    "SUBJECT OF TEST": "Candida tropicalis",
    "OUTPUT UNIT": "µM",
    "MIC80": 7.81
  },
  {
    "MOLECULE": "C=C1C=C(c2ccc(Br)cc2)C(=O)O1",
    "SUBJECT OF TEST": "Candida tropicalis",
    "OUTPUT UNIT": "µM",
    "MIC80": 7.81
  }
]

Field: next molecule
Look up MIC80: COCC1C=C(c2ccc(Br)cc2)C(=O)O1 (stereo not drawn)
62.5
